assay: Pharmacokinetic study, plasma (IV, PO, IP); assay type: in vivo, C57BL/6J mice; conditions: male, C57BL/6J, mouse; IV, 2 mg/kg; plasma
measured quantity: Tmax (min)

{"molecular string": "C=C1CC[C@@]2(OCCC)[C@H]3Cc4ccc(O)c5c4[C@@]2(CCN3CC2CC2)[C@H]1O5", "measured quantity": "Tmax", "data value": 4.8}

###

test: Pharmacokinetic study, plasma (IV, PO, IP); type: in vivo, C57BL/6J mice; settings: male, C57BL/6J, mouse; PO, 5 mg/kg; plasma; read-out: Apparent half-life, t½ (converted)
measured quantity: half-life (min)

{"compound": "C=C1CC[C@@]2(OCCC)[C@H]3Cc4ccc(O)c5c4[C@@]2(CCN3CC2CC2)[C@H]1O5 [Compound 29]", "data value": 59.4}
